Catalogue of compounds with associated cytotoxicity at 20 µM
Test system: NIH-3T3 cells
PROTOCOL_DETAILS: Hoechst/propidium iodide cell death assay in NIH-3T3
Assay type: cell-based
MEASUREMENT_CONDITIONS: Mus musculus, NIH3T3, 24 h, 20 µM, 24 h; read-out: Percentage of cell death % 24h NIH3t3
REPORTED_PROPERTY: cytotoxicity at 20 µM

COMPOUND: CN(C)c1ccc(C(=C2C=CC(=[N+](C)C)C=C2)c2ccc(N(C)C)cc2)cc1 [Crystal Violet]
REPORTED_PROPERTY: cytotoxicity at 20 µM
REPORTED: 94.3%
//
COMPOUND: OC1(c2ccc(Cl)c(C(F)(F)F)c2)CCN(CCCC(c2ccc(F)cc2)c2ccc(F)cc2)CC1 [Penfluridol]
REPORTED_PROPERTY: cytotoxicity at 20 µM
REPORTED: 85.7%
//
COMPOUND: COc1cc2nccc(Oc3ccc(NC(=O)Nc4cc(C)on4)c(Cl)c3)c2cc1OC [Tivozanib (AV-951), Tivozanib]
REPORTED_PROPERTY: cytotoxicity at 20 µM
REPORTED: 10.8%
//
COMPOUND: COc1ccc2c(O[C@@H]3C[C@H]4C(=O)N[C@]5(C(=O)NS(=O)(=O)C6CC6)C[C@H]5/C=C\CCCCN(C)C(=O)[C@@H]4C3)cc(-c3nc(C(C)C)cs3)nc2c1C [Simeprevir]
REPORTED_PROPERTY: cytotoxicity at 20 µM
REPORTED: 19.3%
//
COMPOUND: C=C[C@@H]1C[C@]1(NC(=O)[C@@H]1C[C@@H](Oc2ncc(OC)c3ccc(Cl)cc23)CN1C(=O)[C@@H](NC(=O)OC(C)(C)C)C(C)(C)C)C(=O)NS(=O)(=O)C1CC1 [Asunaprevir (BMS-650032), Asunaprevir]
REPORTED_PROPERTY: cytotoxicity at 20 µM
REPORTED: 3.04%
//
COMPOUND: Clc1ccc(C(Cn2ccnc2)OCc2csc3c(Cl)cccc23)c(Cl)c1 (stereo not drawn) [Sertaconazole nitrate]
REPORTED_PROPERTY: cytotoxicity at 20 µM
REPORTED: 4.15%
//
COMPOUND: C=CC[C@@H]1/C=C(\C)C[C@H](C)C[C@H](OC)[C@H]2O[C@@](O)(C(=O)C(=O)N3CCCC[C@H]3C(=O)O[C@H](/C(C)=C/[C@@H]3CC[C@@H](O)[C@H](OC)C3)[C@H](C)[C@@H](O)CC1=O)[C@H](C)C[C@@H]2OC [Tacrolimus (FK506), Tacrolimus]
REPORTED_PROPERTY: cytotoxicity at 20 µM
REPORTED: 0.808%
//
COMPOUND: CC/C(=C(/CC)c1ccc(O)cc1)c1ccc(O)cc1 [Diethylstilbestrol]
REPORTED_PROPERTY: cytotoxicity at 20 µM
REPORTED: 11.2%
//
COMPOUND: CO/N=C1\C[C@]2(C[C@@H]3C[C@@H](C/C=C(\C)C[C@@H](C)/C=C/C=C4\CO[C@@H]5[C@H](O)C(C)=C[C@@H](C(=O)O3)[C@]45O)O2)O[C@H](/C(C)=C/C(C)C)[C@H]1C [Moxidectin]
REPORTED_PROPERTY: cytotoxicity at 20 µM
REPORTED: 80.7%
//
COMPOUND: O=C1Nc2ccc(Cl)cc2[C@@](C#CC2CC2)(C(F)(F)F)O1 [Efavirenz]
REPORTED_PROPERTY: cytotoxicity at 20 µM
REPORTED: 41.4%
//
COMPOUND: CC1=C(C(=O)OC(C)C)C(c2cccc([N+](=O)[O-])c2)C(C(=O)OC2CN(C(c3ccccc3)c3ccccc3)C2)=C(N)N1 (stereo not drawn) [Azelnidipine]
REPORTED_PROPERTY: cytotoxicity at 20 µM
REPORTED: 75.6%
//
COMPOUND: OC(CNCC(O)C1CCc2cc(F)ccc2O1)C1CCc2cc(F)ccc2O1 (stereo not drawn) [Nebivolol]
REPORTED_PROPERTY: cytotoxicity at 20 µM
REPORTED: 64.6%
